# measured-target: α7* nAChRs (Rattus norvegicus)
# Sequence (Q05941 23-502): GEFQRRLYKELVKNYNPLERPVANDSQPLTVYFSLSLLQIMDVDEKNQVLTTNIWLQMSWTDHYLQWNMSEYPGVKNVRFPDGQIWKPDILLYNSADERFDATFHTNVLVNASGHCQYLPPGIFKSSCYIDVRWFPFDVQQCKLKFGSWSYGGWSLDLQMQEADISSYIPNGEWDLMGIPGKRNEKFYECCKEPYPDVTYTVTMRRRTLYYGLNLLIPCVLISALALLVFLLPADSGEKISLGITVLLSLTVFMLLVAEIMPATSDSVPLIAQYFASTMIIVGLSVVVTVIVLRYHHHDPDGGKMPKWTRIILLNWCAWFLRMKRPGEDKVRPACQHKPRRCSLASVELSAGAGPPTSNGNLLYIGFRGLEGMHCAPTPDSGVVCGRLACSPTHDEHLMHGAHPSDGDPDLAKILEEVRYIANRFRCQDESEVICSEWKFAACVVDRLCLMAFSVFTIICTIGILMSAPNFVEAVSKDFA
# details: read-out: [^3H]MLA Binding Ki; Table 7; mean (standard error)
measurement-kind: Ki (µM)
One number for each entry, in µM.

Input: Complete the entry with Ki for [Br-].[Br-].c1cc[n+](CCCCCCCCCCCC[n+]2ccccc2)cc1 [bPDDB]
Output: 33

====

# measured-target: α4β2* nAChRs (Rattus norvegicus, UniProt P09483+P12390)
# Sequence (P09483 31-630): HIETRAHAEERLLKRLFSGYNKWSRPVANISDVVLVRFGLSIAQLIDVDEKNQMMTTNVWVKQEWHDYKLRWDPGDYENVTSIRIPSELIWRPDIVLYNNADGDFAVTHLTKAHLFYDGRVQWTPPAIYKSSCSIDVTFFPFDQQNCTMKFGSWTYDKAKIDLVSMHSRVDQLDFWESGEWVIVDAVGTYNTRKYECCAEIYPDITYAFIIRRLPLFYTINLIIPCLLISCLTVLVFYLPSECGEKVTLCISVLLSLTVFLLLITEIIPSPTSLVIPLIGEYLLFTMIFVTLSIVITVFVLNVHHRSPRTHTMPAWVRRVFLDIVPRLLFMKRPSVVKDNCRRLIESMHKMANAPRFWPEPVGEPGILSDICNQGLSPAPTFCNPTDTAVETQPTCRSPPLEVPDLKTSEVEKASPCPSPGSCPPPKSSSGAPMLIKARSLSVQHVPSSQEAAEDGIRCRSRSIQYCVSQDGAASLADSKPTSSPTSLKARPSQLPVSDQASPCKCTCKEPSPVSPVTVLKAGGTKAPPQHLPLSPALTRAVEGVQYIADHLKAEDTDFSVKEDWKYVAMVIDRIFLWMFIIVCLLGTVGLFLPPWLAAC
# Sequence (P12390 25-500): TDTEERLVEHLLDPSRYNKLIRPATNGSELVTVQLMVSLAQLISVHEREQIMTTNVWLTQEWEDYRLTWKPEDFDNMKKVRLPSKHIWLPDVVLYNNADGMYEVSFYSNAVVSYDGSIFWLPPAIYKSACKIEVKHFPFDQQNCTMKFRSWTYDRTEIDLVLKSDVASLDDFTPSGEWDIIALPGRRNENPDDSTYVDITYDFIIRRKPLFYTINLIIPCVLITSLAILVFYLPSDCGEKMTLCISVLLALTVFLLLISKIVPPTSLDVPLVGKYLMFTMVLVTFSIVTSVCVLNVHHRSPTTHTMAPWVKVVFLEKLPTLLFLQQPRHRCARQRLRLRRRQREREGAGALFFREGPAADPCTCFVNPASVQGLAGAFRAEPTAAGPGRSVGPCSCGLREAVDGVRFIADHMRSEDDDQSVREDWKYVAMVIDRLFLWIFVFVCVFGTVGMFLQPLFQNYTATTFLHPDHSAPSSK
# details: read-out: [^3H]Nicotine Binding Ki; Table 5; mean (95% confidence interval)
measurement-kind: pKi
Answers are plain numbers, as −log10 of the molar value.

Input: Please indicate pKi recorded for CCCCCCCCCCCCCCC[n+]1ccccc1
Output: 4.42

====

# measured-target: α7-type neuronal nicotinic acetylcholine receptors (Rattus norvegicus, UniProt Q05941)
# Construct: Rat brain was dissected into the whole brain tissue without cortex, striatum and cerebellum; from tissue; host or cells: rat brain (without cortex, striatum, cerebellum) membranes
# Sequence (Q05941 23-502): as the sequence (Q05941 23-502) above
# assay-explanation: biochemical
# details: read-out: Ki, [^3H]MLA binding
measurement-kind: pKi
Answers are plain numbers, as −log10 of the molar value.

Input: Report pKi, nothing else, for this compound: c1cc[n+](CCCCCCCCCCC[n+]2ccccc2)cc1
Output: 4.30

====

# measured-target: Rat Striatal Nicotinic Acetylcholine Receptors ([^3H]nicotine binding sites) (Rattus norvegicus, UniProt P09483+P12390)
# Construct: Striata from two rats were dissected, pooled, and homogenized; from tissue; host or cells: rat striatum membranes
# Sequence (P09483 31-630): as the sequence (P09483 31-630) above
# Sequence (P12390 25-500): as the sequence (P12390 25-500) above
# assay-explanation: biochemical
# details: read-out: Ki, specific binding of [^3H]-nicotine
measurement-kind: pKi
One number for each entry, as −log10 of the molar value.

Input: Tell us which pKi value is on record for CO[C@H]1CC=C2CCN3CCC4=C(CC(=O)OC4)[C@]23C1 [DHβE, dihydro-β-erthyroidine, reference compound]
Output: 6.82

====

# measured-target: [^3H]DA Uptake
# assay-explanation: [^3H]DA uptake inhibition (Table 11)
measurement-kind: Ki

Need Ki for each of these compounds.
1. c1ccc2c[n+](CCCCCCCCCCCC[n+]3ccc4ccccc4c3)ccc2c1
2. CN1CCC[C@H]1c1ccc[n+](CCCCCCCCCCCC[n+]2cccc([C@@H]3CCCN3C)c2)c1
3. c1ccc2c(c1)ccc[n+]2CCCCCCCCCCCC[n+]1cccc2ccccc21

Output:
["0.27 µM", "43.2 µM", "3.86 µM"]

Input: Fill in reported Ki for this entry: [Br-].[Br-].c1cc[n+](CCCCCCCCCCCC[n+]2ccccc2)cc1
Output: > 100 µM

====

# Test system: nAChR subtypes mediating nicotine-evoked [^3H]-dopamine overflow
# details: read-out: Nicotine-evoked [^3H]DA Overflow IC50; Table 6; mean (standard error)
Record form. Attribute: pIC50. Fill in for each entry.
Give bare numbers, as −log10 of the molar value.

Input: Determine reported pIC50 for CCCCCCCCCCC[n+]1cccc2c1CCC1CCN(C)C21 (stereo not drawn) ; test system: nAChR subtypes mediating nicotine-evoked [^3H]-dopamine overflow.
Output: 7.40

Input: Find pIC50 for CCCCCCCCC[n+]1cccc2c1CCC1CCN(C)C21 (stereo not drawn) on nAChR subtypes mediating nicotine-evoked [^3H]-dopamine overflow and write it down.
Output: 6.51

Next compound, please.
Input: Report the value of pIC50 obtained on nAChR subtypes mediating nicotine-evoked [^3H]-dopamine overflow for CCCCCCCCCCCC[n+]1ccc2c(c1)[C@@H]1[C@H](CC2)CCN1C .
Output: 6.66
